# SYSTEM UNDER TEST: recombinant human estradiol receptors (rhER) alpha (α) (Homo sapiens, UniProt P03372)
# Sequence (P03372 1-595): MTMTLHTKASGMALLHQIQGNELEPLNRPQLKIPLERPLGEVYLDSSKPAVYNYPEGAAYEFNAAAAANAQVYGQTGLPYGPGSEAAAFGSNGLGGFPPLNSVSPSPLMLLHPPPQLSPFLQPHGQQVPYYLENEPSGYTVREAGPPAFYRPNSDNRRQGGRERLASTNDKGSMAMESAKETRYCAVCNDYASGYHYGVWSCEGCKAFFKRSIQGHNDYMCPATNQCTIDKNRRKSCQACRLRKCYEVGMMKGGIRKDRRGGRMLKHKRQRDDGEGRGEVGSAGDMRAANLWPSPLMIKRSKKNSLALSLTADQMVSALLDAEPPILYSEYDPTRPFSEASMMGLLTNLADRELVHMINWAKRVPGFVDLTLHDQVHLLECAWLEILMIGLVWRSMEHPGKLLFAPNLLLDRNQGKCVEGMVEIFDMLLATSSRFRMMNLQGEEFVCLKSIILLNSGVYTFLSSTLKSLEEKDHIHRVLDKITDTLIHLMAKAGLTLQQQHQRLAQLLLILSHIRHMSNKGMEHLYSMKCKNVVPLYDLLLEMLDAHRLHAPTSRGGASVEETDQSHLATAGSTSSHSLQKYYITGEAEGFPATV
# PROCEDURE SUMMARY: in vitro competitive binding assay, displacement of [3H]estradiol from rhER alpha
# RUN PARAMETERS: running text; highest concentration 2.5×E−4 M
PARAMETER: estradiol binding / displacement at the alpha estradiol receptor (in words)

MOLECULE | SYSTEM UNDER TEST | READING
CC(C)(c1ccccc1)c1ccc(O)cc1 [B, p-Cumyl Phenol, reference compound] | recombinant human estradiol receptors (rhER) alpha (α) (Homo sapiens, UniProt P03372) | displace estradiol
COC(=O)CCC(C)(c1ccc(O)cc1)c1ccc(O)cc1 [F, Diphenolic Acid Methyl Ester, reference compound] | recombinant human estradiol receptors (rhER) alpha (α) (Homo sapiens, UniProt P03372) | displace estradiol
CC(c1ccccc1)(c1ccc(O)cc1)c1ccc(O)cc1 [D, Bisphenol Acetophenone, reference compound] | recombinant human estradiol receptors (rhER) alpha (α) (Homo sapiens, UniProt P03372) | displace estradiol

Measured values drawn from patent US8669315B2 for this set.
